- Test system: 755483-174-R-J1-PDC complex spheroid growth, percent test/control
- assay_details: Anticancer human tumor 755483-174-R-J1-PDC patient-derived rhabdomyosarcoma cell line growth inhibition [Asc]
- assay_conditions: second compound 0.0316 µM; first compound 0.0316 µM; stronger effect = lower value
# strict inequality: viability, T/C < 40% yields Y, everything else yields N

* Cn1ncnc1[C@H]1c2n[nH]c(=O)c3cc(F)cc(c23)N[C@@H]1c1ccc(F)cc1 + CNC(C)C(=O)NC1CN(S(=O)(=O)c2cccc(S(=O)(=O)N3CCC4CCC(C(=O)NC(c5ccccc5)c5ccccc5)N4C(=O)C(NC(=O)C(C)NC)C3)c2)CCC2CCC(C(=O)NC(c3ccccc3)c3ccccc3)N2C1=O | Y
* C=C(F)C(=O)N1CCN(c2nc(OCC3CCCN3C)nc3c2CCN(c2cccc4cccc(Cl)c24)C3)CC1CC#N (centres undefined) + CNC(C)C(=O)NC1CN(S(=O)(=O)c2cccc(S(=O)(=O)N3CCC4CCC(C(=O)NC(c5ccccc5)c5ccccc5)N4C(=O)C(NC(=O)C(C)NC)C3)c2)CCC2CCC(C(=O)NC(c3ccccc3)c3ccccc3)N2C1=O | N
* O=C(c1cc(Cc2n[nH]c(=O)c3ccccc23)ccc1F)N1CCN(C(=O)C2CC2)CC1 + CNC(C)C(=O)NC1CN(S(=O)(=O)c2cccc(S(=O)(=O)N3CCC4CCC(C(=O)NC(c5ccccc5)c5ccccc5)N4C(=O)C(NC(=O)C(C)NC)C3)c2)CCC2CCC(C(=O)NC(c3ccccc3)c3ccccc3)N2C1=O | Y
* C#Cc1c(F)ccc2cc(O)cc(-c3ncc4c(N5CC6CCC(C5)N6)nc(OCC56CCCN5CC(F)C6)nc4c3F)c12 (centres undefined) + CNC(C)C(=O)NC1CN(S(=O)(=O)c2cccc(S(=O)(=O)N3CCC4CCC(C(=O)NC(c5ccccc5)c5ccccc5)N4C(=O)C(NC(=O)C(C)NC)C3)c2)CCC2CCC(C(=O)NC(c3ccccc3)c3ccccc3)N2C1=O | Y
* C=CC(=O)N1CCN(c2nc(=O)n(-c3c(C)ccnc3C(C)C)c3nc(-c4c(O)cccc4F)c(F)cc23)C(C)C1 (centres undefined) + CNC(C)C(=O)NC1CN(S(=O)(=O)c2cccc(S(=O)(=O)N3CCC4CCC(C(=O)NC(c5ccccc5)c5ccccc5)N4C(=O)C(NC(=O)C(C)NC)C3)c2)CCC2CCC(C(=O)NC(c3ccccc3)c3ccccc3)N2C1=O | N

Task item: I'd appreciate it if you could check whether O=C(c1ccc(F)c(F)c1Nc1ccc(I)cc1F)N1CC(O)([C@@H]2CCCCN2)C1 + CNC(C)C(=O)NC1CN(S(=O)(=O)c2cccc(S(=O)(=O)N3CCC4CCC(C(=O)NC(c5ccccc5)c5ccccc5)N4C(=O)C(NC(=O)C(C)NC)C3)c2)CCC2CCC(C(=O)NC(c3ccccc3)c3ccccc3)N2C1=O has viability, T/C smaller than 40%.
Reply: Y

Task item: A record lists NC1CCC(NC2CC2c2ccccc2)CC1 (centres undefined) + CNC(C)C(=O)NC1CN(S(=O)(=O)c2cccc(S(=O)(=O)N3CCC4CCC(C(=O)NC(c5ccccc5)c5ccccc5)N4C(=O)C(NC(=O)C(C)NC)C3)c2)CCC2CCC(C(=O)NC(c3ccccc3)c3ccccc3)N2C1=O . Is its viability, T/C below 40%?
Reply: Y

====

Form field: viability, T/C (one value per entry).
- Tested on: 755483-174-R-J1-PDC complex spheroid growth, percent test/control
- assay_details: Anticancer human tumor 755483-174-R-J1-PDC cell line growth inhibition [Asc];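 further: spheroids exposed to compounds for seven days before readout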
- assay_conditions: second compound 0.01 µM; first compound 0.316 µM; stronger effect = lower value
- Excerpt: Multicellular complex tumor spheroid response to apoptosis pathway targeting inhibitors Alrizomadlin, Pelcitoclax, and Dasminapant in combination with a variety of drugs and investigational agents in selected tumor cell lines […] Compounds. […] If the clinical Cmax for an agent had not been determined, the highest concentration tested was 10 microM. […]
Write the number in % without appending the unit.

Reference set (2 entries):
* C=CC(=O)N1CCN(c2nc(=O)n(-c3c(C)ccnc3C(C)C)c3nc(-c4c(O)cccc4F)c(F)cc23)C(C)C1 (stereo not drawn) + CNC(C)C(=O)NC1CN(S(=O)(=O)c2cccc(S(=O)(=O)N3CCC4CCC(C(=O)NC(c5ccccc5)c5ccccc5)N4C(=O)C(NC(=O)C(C)NC)C3)c2)CCC2CCC(C(=O)NC(c3ccccc3)c3ccccc3)N2C1=O | 75.2
* C#Cc1c(F)ccc2cc(O)cc(-c3ncc4c(N5CC6CCC(C5)N6)nc(OCC56CCCN5CC(F)C6)nc4c3F)c12 (stereo not drawn) + CNC(C)C(=O)NC1CN(S(=O)(=O)c2cccc(S(=O)(=O)N3CCC4CCC(C(=O)NC(c5ccccc5)c5ccccc5)N4C(=O)C(NC(=O)C(C)NC)C3)c2)CCC2CCC(C(=O)NC(c3ccccc3)c3ccccc3)N2C1=O | 55.5

# context switch: different compound, same viability, T/C
Task item: Find the recorded viability, T/C belonging to O=C(c1cc(Cc2n[nH]c(=O)c3ccccc23)ccc1F)N1CCN(C(=O)C2CC2)CC1 + CNC(C)C(=O)NC1CN(S(=O)(=O)c2cccc(S(=O)(=O)N3CCC4CCC(C(=O)NC(c5ccccc5)c5ccccc5)N4C(=O)C(NC(=O)C(C)NC)C3)c2)CCC2CCC(C(=O)NC(c3ccccc3)c3ccccc3)N2C1=O and report it.
Reply: 34.5

====

viability, T/C values for the compounds below.
- System: 755483-174-R-J1-PDC complex spheroid growth, percent test/control
- assay_details: Anticancer human tumor 755483-174-R-J1-PDC cell line growth inhibition [Asc];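 further: spheroids exposed to compounds for seven days before readout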
- assay_conditions: second compound 0.1 µM; first compound 10 µM; stronger effect = lower value
I only need the number, in %, no unit after it.

* C=C(F)C(=O)N1CCN(c2nc(OCC3CCCN3C)nc3c2CCN(c2cccc4cccc(Cl)c24)C3)CC1CC#N (configuration not stated) + CNC(C)C(=O)NC1CN(S(=O)(=O)c2cccc(S(=O)(=O)N3CCC4CCC(C(=O)NC(c5ccccc5)c5ccccc5)N4C(=O)C(NC(=O)C(C)NC)C3)c2)CCC2CCC(C(=O)NC(c3ccccc3)c3ccccc3)N2C1=O | 0.12

Query compound follows.
Task item: Endpoint output: viability, T/C of C=CC(=O)N1CCN(c2nc(=O)n(-c3c(C)ccnc3C(C)C)c3nc(-c4c(O)cccc4F)c(F)cc23)C(C)C1 (configuration not stated) + CNC(C)C(=O)NC1CN(S(=O)(=O)c2cccc(S(=O)(=O)N3CCC4CCC(C(=O)NC(c5ccccc5)c5ccccc5)N4C(=O)C(NC(=O)C(C)NC)C3)c2)CCC2CCC(C(=O)NC(c3ccccc3)c3ccccc3)N2C1=O . Value?
Reply: 51.1

====

Listed next: entries and their corresponding viability, T/C.
- System: 755483-174-R-J1-PDC complex spheroid growth, percent test/control
- assay_details: Anticancer human tumor 755483-174-R-J1-PDC cell line growth inhibition [Asc];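 further: spheroids exposed to compounds for seven days before readout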
- assay_conditions: second compound 0.949 µM; first compound 0.316 µM; stronger effect = lower value
Return type: number; implicit unit %.

Task item: API: value(readout=viability, T/C, system=755483-174-R-J1-PDC complex spheroid growth, percent test/control) for record C#Cc1c(F)ccc2cc(O)cc(-c3ncc4c(N5CC6CCC(C5)N6)nc(OCC56CCCN5CC(F)C6)nc4c3F)c12 (centres undefined) + CCN1C(C(=O)NC23CCC(C(=O)O)(CC2)CC3)C(c2cccc(Cl)c2F)C2(C(=O)Nc3cc(Cl)ccc32)C12CCCCC2
Reply: 117

Task item: Param readout = viability, T/C; param system = 755483-174-R-J1-PDC complex spheroid growth, percent test/control; param query = C=CC(=O)N1CCN(c2nc(=O)n(-c3c(C)ccnc3C(C)C)c3nc(-c4c(O)cccc4F)c(F)cc23)C(C)C1 (centres undefined) + CCN1C(C(=O)NC23CCC(C(=O)O)(CC2)CC3)C(c2cccc(Cl)c2F)C2(C(=O)Nc3cc(Cl)ccc32)C12CCCCC2 ; response: value
Reply: 115

Task item: Field: viability, T/C (755483-174-R-J1-PDC complex spheroid growth, percent test/control). Entry: O=C(c1ccc(F)c(F)c1Nc1ccc(I)cc1F)N1CC(O)([C@@H]2CCCCN2)C1 + CCN1C(C(=O)NC23CCC(C(=O)O)(CC2)CC3)C(c2cccc(Cl)c2F)C2(C(=O)Nc3cc(Cl)ccc32)C12CCCCC2
Reply: 39.8

Task item: What viability, T/C appears in the records for this compound with 755483-174-R-J1-PDC complex spheroid growth, percent test/control? C=C(F)C(=O)N1CCN(c2nc(OCC3CCCN3C)nc3c2CCN(c2cccc4cccc(Cl)c24)C3)CC1CC#N (centres undefined) + CCN1C(C(=O)NC23CCC(C(=O)O)(CC2)CC3)C(c2cccc(Cl)c2F)C2(C(=O)Nc3cc(Cl)ccc32)C12CCCCC2
Reply: 89.2

====

- System: 755483-174-R-J1-PDC complex spheroid growth, percent test/control
- assay_details: Anticancer human tumor 755483-174-R-J1-PDC cell line growth inhibition [Asc];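 further: spheroids exposed to compounds for seven days before readout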
- assay_conditions: second compound 0.949 µM; first compound 0.316 µM; stronger effect = lower value
metric_name: viability, T/C

• CNC(C)C(=O)NC1CN(S(=O)(=O)c2cccc(S(=O)(=O)N3CCC4CCC(C(=O)NC(c5ccccc5)c5ccccc5)N4C(=O)C(NC(=O)C(C)NC)C3)c2)CCC2CCC(C(=O)NC(c3ccccc3)c3ccccc3)N2C1=O (centres undefined) + CCN1C(C(=O)NC23CCC(C(=O)O)(CC2)CC3)C(c2cccc(Cl)c2F)C2(C(=O)Nc3cc(Cl)ccc32)C12CCCCC2 = 42%
• O=C(c1cc(Cc2n[nH]c(=O)c3ccccc23)ccc1F)N1CCN(C(=O)C2CC2)CC1 + CCN1C(C(=O)NC23CCC(C(=O)O)(CC2)CC3)C(c2cccc(Cl)c2F)C2(C(=O)Nc3cc(Cl)ccc32)C12CCCCC2 = 66%

Task item: What does the data say about its viability, T/C? Entry: CCN1CCN(Cc2ccc(Nc3ncc(F)c(-c4cc(F)c5nc(C)n(C(C)C)c5c4)n3)nc2)CC1 + CCN1C(C(=O)NC23CCC(C(=O)O)(CC2)CC3)C(c2cccc(Cl)c2F)C2(C(=O)Nc3cc(Cl)ccc32)C12CCCCC2
Reply: 129%

Task item: Given the compound COc1c(OCCCN2CCOCC2)ccc2c3n(c(=NC(=O)c4cnc(N)nc4)nc12)CCN3 + CCN1C(C(=O)NC23CCC(C(=O)O)(CC2)CC3)C(c2cccc(Cl)c2F)C2(C(=O)Nc3cc(Cl)ccc32)C12CCCCC2 , what is its reported viability, T/C?
Reply: 12.1%
